method: Pharmacokinetics in Cynomolgus monkeys, single subcutaneous or intravenous dose
Assay type: in vivo
measurement_setup: both sexes, cynomolgus monkey, plasma, sc, 183 nmol/kg, single subcutaneous dose 183 nmol/kg, Mean, read-out: CL/F (converted)
*1 amine or outer side, *2 acyl side, *3 side chain or, on linkers, in order; H or OH if unused. Side-chain parts run from the residue outwards. [ ]: non-standard residue; d: D form. The star is where a group is joined. C20 diacid = O=C(O)CCCCCCCCCCCCCCCCCCC(=O)*; γGlu = O=C(O)[C@H](CCC(=O)[*:2])N[*:1]; εLys = N[C@@H](CCCCN[*:1])C(=O)[*:2]; pGlu = O=C1CC[C@@H](C(=O)O)N1; αMeL = CC(C)C[C@](C)(N)C(=O)O; AEEA = NCCOCCOCC(=O)O; Aib = CC(C)(N)C(=O)O
measure: CL/F (mL/day/kg)
Answers are plain numbers, in mL/day/kg.

Indicate the recorded CL/F value for this substance: [pGlu]GSPSGIVTS[αMeL]DVPT[Aib][αMeL]LQKILEQERAEKARQQAK([γGlu-AEEA-εLys-C20 diacid])EAAEILAQV-NH2 [SEQ ID NO: 22]
12.9
